- System: NCI-H2347
- Procedure Details: relative viability (nuclei count vs DMSO), 5 days (fraction); higher = more cells survive
- Condition Context: first compound 0.1 µM
Flag rule - relative viability less than 0.3 flags 1; the remaining entries get -1.

Consider the worked cases shown below.
O=c1cc(N2CCOCC2)oc2c(-c3cccc4c3sc3ccccc34)cccc12 + CC(C)C[C@H](NC(=O)[C@H](Cc1ccccc1)NC(=O)c1cnccn1)B(O)O [Bortezomib] (partner 0.002 µM); -1
CCN(CC)CCCCNc1ncc2cc(-c3cc(OC)cc(OC)c3)c(NC(=O)NC(C)(C)C)nc2n1 + N=C(N)NC(=N)NCCc1ccccc1 [Phenformin] (partner 250 µM); 1
O=c1cc(N2CCOCC2)oc2c(-c3cccc4c3sc3ccccc34)cccc12 + CC(=O)Nc1cccc(-n2c(=O)n(C3CC3)c(=O)c3c(Nc4ccc(I)cc4F)n(C)c(=O)c(C)c32)c1 [Trametinib] (partner 0.02 µM); 1
O=c1cc(N2CCOCC2)oc2c(-c3cccc4c3sc3ccccc34)cccc12 + Cc1nc(Nc2ncc(C(=O)Nc3c(C)cccc3Cl)s2)cc(N2CCN(CCO)CC2)n1 [Dasatinib] (partner 0.075 µM); 1

As a next step, examine the compound that follows.
Request: Does this compound meet the criterion relative viability < 0.3? O=c1cc(N2CCOCC2)oc2c(-c3cccc4c3sc3ccccc34)cccc12 + CC(=O)c1c(C)c2cnc(Nc3ccc(N4CCNCC4)cn3)nc2n(C2CCCC2)c1=O [Palbociclib] (partner 0.5 µM)
Result: -1

====

- Test system: SK-LU-1
- Procedure Details: relative viability (nuclei count vs DMSO), 5 days (fraction); higher = more cells survive
- Condition Context: first compound 6.325 µM
Endpoint Label: relative viability
Simply state the number, no unit and no words.

COCC1(CO)C(=O)C2CCN1CC2 (stereo unspecified) [PRIMA-1MET] + Nc1ncn([C@H]2C[C@H](O)[C@@H](CO)O2)c(=O)n1 [Decitabine] (partner 2 µM); 0.707

Noted for COCC1(CO)C(=O)C2CCN1CC2 (stereo unspecified) [PRIMA-1MET] + C[C@@H](Oc1cc(-c2cnn(C3CCNCC3)c2)cnc1N)c1c(Cl)ccc(F)c1Cl [Crizotinib] (partner 1 µM) : its relative viability reads 1.09

Noted for COCC1(CO)C(=O)C2CCN1CC2 (stereo unspecified) [PRIMA-1MET] + CC(=O)c1c(C)c2cnc(Nc3ccc(N4CCNCC4)cn3)nc2n(C2CCCC2)c1=O [Palbociclib] (partner 0.5 µM) : its relative viability reads 0.376

Noted for COCC1(CO)C(=O)C2CCN1CC2 (stereo unspecified) [PRIMA-1MET] + COc1cc2c(Oc3ccc(NC(=O)C4(C(=O)Nc5ccc(F)cc5)CC4)cc3F)ccnc2cc1OCCCN1CCOCC1 [Foretinib] (partner 0.25 µM) : its relative viability reads 0.834

Noted for COCC1(CO)C(=O)C2CCN1CC2 (stereo unspecified) [PRIMA-1MET] + C[C@]1(O)C[C@@H](c2nc(-c3ccc4ccc(-c5ccccc5)nc4c3)c3c(N)nccn32)C1 [Linsitinib] (partner 1 µM) : its relative viability reads 1.06

Noted for COCC1(CO)C(=O)C2CCN1CC2 (stereo unspecified) [PRIMA-1MET] + Nc1nc2[nH]cc(CCc3ccc(C(=O)N[C@@H](CCC(=O)O)C(=O)O)cc3)c2c(=O)[nH]1 [Pemetrexed] (partner 0.2 µM) : its relative viability reads 0.955

====

- System: NCI-H2009
- Procedure Details: relative viability (nuclei count vs DMSO), 5 days (fraction); higher = more cells survive
- Condition Context: first compound 0.03162 µM
Quick reference for relative viability among some compounds
Simply state the number, no unit and no words.

O=c1cc(N2CCOCC2)oc2c(-c3cccc4c3sc3ccccc34)cccc12 + CC(C)C[C@H](NC(=O)[C@H](Cc1ccccc1)NC(=O)c1cnccn1)B(O)O [Bortezomib] (partner 0.002 µM); 1.01

Noted for O=c1cc(N2CCOCC2)oc2c(-c3cccc4c3sc3ccccc34)cccc12 + Nc1nc2[nH]cc(CCc3ccc(C(=O)N[C@@H](CCC(=O)O)C(=O)O)cc3)c2c(=O)[nH]1 [Pemetrexed] (partner 0.2 µM) : its relative viability reads 1.04

Noted for O=c1cc(N2CCOCC2)oc2c(-c3cccc4c3sc3ccccc34)cccc12 + CC(=O)Nc1cccc(-n2c(=O)n(C3CC3)c(=O)c3c(Nc4ccc(I)cc4F)n(C)c(=O)c(C)c32)c1 [Trametinib] (partner 0.02 µM) : its relative viability reads 0.294

====

Quick reference for relative viability among some compounds
- System: NCI-H647
- Procedure Details: relative viability (nuclei count vs DMSO), 5 days (fraction); higher = more cells survive
- Condition Context: first compound 0.253 µM
Simply state the number, no unit and no words.

COc1nc(C)cnc1NS(=O)(=O)c1cccnc1-c1ccc(-c2nnco2)cc1 [Zibotentan] + Cc1nc(Nc2ncc(C(=O)Nc3c(C)cccc3Cl)s2)cc(N2CCN(CCO)CC2)n1 [Dasatinib] (partner 0.075 µM); 0.185

Now, please, on to the next compound.
Noted for O=c1cc(-c2cccc3c2Sc2ccccc2S3)oc(N2CCOCC2)c1 + CC(=O)Nc1cccc(-n2c(=O)n(C3CC3)c(=O)c3c(Nc4ccc(I)cc4F)n(C)c(=O)c(C)c32)c1 [Trametinib] (partner 0.02 µM) : its relative viability reads 0.543

====

- Test system: LCLC-97TM1
- Procedure Details: relative viability (nuclei count vs DMSO), 5 days (fraction); higher = more cells survive
- Condition Context: first compound 0.3162 µM
Endpoint Label: relative viability
Simply state the number, no unit and no words.

Below, each entry is followed by its recorded relative viability result.
O=c1cc(N2CCOCC2)oc2c(-c3cccc4c3sc3ccccc34)cccc12 + CC(C)C[C@H](NC(=O)[C@H](Cc1ccccc1)NC(=O)c1cnccn1)B(O)O [Bortezomib] (partner 0.002 µM); 0.751
O=c1cc(N2CCOCC2)oc2c(-c3cccc4c3sc3ccccc34)cccc12 + CC(=O)c1c(C)c2cnc(Nc3ccc(N4CCNCC4)cn3)nc2n(C2CCCC2)c1=O [Palbociclib] (partner 0.5 µM); 0.21
CCN(CC)CCCCNc1ncc2cc(-c3cc(OC)cc(OC)c3)c(NC(=O)NC(C)(C)C)nc2n1 + C[C@]1(O)C[C@@H](c2nc(-c3ccc4ccc(-c5ccccc5)nc4c3)c3c(N)nccn32)C1 [Linsitinib] (partner 1 µM); 0.199

Noted for O=c1cc(N2CCOCC2)oc2c(-c3cccc4c3sc3ccccc34)cccc12 + N=C(N)NC(=N)NCCc1ccccc1 [Phenformin] (partner 250 µM) : its relative viability reads 0.378

Noted for CCN(CC)CCCCNc1ncc2cc(-c3cc(OC)cc(OC)c3)c(NC(=O)NC(C)(C)C)nc2n1 + N=C(N)NC(=N)NCCc1ccccc1 [Phenformin] (partner 250 µM) : its relative viability reads 0.428

Noted for CCN(CC)CCCCNc1ncc2cc(-c3cc(OC)cc(OC)c3)c(NC(=O)NC(C)(C)C)nc2n1 + O=C(CCCCCCC(=O)Nc1ccccc1)NO [Vorinostat] (partner 1 µM) : its relative viability reads 0.865

Noted for O=c1cc(N2CCOCC2)oc2c(-c3cccc4c3sc3ccccc34)cccc12 + O=C(CCCCCCC(=O)Nc1ccccc1)NO [Vorinostat] (partner 1 µM) : its relative viability reads 0.66

Noted for O=c1cc(N2CCOCC2)oc2c(-c3cccc4c3sc3ccccc34)cccc12 + Cc1nc(Nc2ncc(C(=O)Nc3c(C)cccc3Cl)s2)cc(N2CCN(CCO)CC2)n1 [Dasatinib] (partner 0.075 µM) : its relative viability reads 0.917

Noted for O=c1cc(N2CCOCC2)oc2c(-c3cccc4c3sc3ccccc34)cccc12 + Nc1nc2[nH]cc(CCc3ccc(C(=O)N[C@@H](CCC(=O)O)C(=O)O)cc3)c2c(=O)[nH]1 [Pemetrexed] (partner 0.2 µM) : its relative viability reads 0.162

Noted for O=c1cc(N2CCOCC2)oc2c(-c3cccc4c3sc3ccccc34)cccc12 + CS(=O)(=O)CCNCc1ccc(-c2ccc3ncnc(Nc4ccc(OCc5cccc(F)c5)c(Cl)c4)c3c2)o1 [Lapatinib] (partner 2 µM) : its relative viability reads 1.13

====

Quick reference for relative viability among some compounds
- System: NCI-H2170
- Procedure Details: relative viability (nuclei count vs DMSO), 5 days (fraction); higher = more cells survive
- Condition Context: first compound 0.253 µM
Simply state the number, no unit and no words.

Below, each entry is followed by its recorded relative viability result.
COc1nc(C)cnc1NS(=O)(=O)c1cccnc1-c1ccc(-c2nnco2)cc1 [Zibotentan] + NC(=O)Nc1cc(-c2cccc(F)c2)sc1C(=O)N[C@H]1CCCNC1 [AZD7762] (partner 0.2 µM); 0.881
O=c1cc(-c2cccc3c2Sc2ccccc2S3)oc(N2CCOCC2)c1 + CCNC(=O)c1noc(-c2cc(C(C)C)c(O)cc2O)c1-c1ccc(CN2CCOCC2)cc1 [Luminespib] (partner 0.01 µM); 0.931
COc1nc(C)cnc1NS(=O)(=O)c1cccnc1-c1ccc(-c2nnco2)cc1 [Zibotentan] + O=C(c1cc(Cc2n[nH]c(=O)c3ccccc23)ccc1F)N1CCN(C(=O)C2CC2)CC1 [Olaparib] (partner 8 µM); 0.648
O=c1cc(-c2cccc3c2Sc2ccccc2S3)oc(N2CCOCC2)c1 + Cc1cc(Nc2cc(N3CCN(C)CC3)nc(Sc3ccc(NC(=O)C4CC4)cc3)n2)n[nH]1 [Tozasertib] (partner 0.1 µM); 0.739

Now, please, on to the next compound.
Noted for COc1nc(C)cnc1NS(=O)(=O)c1cccnc1-c1ccc(-c2nnco2)cc1 [Zibotentan] + Cc1nc(Nc2ncc(C(=O)Nc3c(C)cccc3Cl)s2)cc(N2CCN(CCO)CC2)n1 [Dasatinib] (partner 0.075 µM) : its relative viability reads 0.612
